Study System: UniProtKB O00311
Sequence (O00311 whole entry): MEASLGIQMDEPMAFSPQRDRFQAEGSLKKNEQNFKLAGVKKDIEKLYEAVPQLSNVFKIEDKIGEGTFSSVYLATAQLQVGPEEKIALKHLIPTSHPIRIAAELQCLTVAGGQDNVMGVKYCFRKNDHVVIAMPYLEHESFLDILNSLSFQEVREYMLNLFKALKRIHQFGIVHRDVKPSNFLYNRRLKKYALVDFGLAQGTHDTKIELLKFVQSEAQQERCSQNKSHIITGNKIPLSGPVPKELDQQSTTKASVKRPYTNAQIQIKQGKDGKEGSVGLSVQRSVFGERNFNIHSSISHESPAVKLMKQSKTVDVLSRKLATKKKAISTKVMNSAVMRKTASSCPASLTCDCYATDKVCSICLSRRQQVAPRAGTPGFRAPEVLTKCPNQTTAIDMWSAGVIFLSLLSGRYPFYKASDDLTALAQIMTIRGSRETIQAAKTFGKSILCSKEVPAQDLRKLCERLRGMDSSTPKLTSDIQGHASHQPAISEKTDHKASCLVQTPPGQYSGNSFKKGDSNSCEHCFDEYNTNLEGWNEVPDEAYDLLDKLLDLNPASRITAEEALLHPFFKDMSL
Sequence (Q9UBU7 whole entry partner): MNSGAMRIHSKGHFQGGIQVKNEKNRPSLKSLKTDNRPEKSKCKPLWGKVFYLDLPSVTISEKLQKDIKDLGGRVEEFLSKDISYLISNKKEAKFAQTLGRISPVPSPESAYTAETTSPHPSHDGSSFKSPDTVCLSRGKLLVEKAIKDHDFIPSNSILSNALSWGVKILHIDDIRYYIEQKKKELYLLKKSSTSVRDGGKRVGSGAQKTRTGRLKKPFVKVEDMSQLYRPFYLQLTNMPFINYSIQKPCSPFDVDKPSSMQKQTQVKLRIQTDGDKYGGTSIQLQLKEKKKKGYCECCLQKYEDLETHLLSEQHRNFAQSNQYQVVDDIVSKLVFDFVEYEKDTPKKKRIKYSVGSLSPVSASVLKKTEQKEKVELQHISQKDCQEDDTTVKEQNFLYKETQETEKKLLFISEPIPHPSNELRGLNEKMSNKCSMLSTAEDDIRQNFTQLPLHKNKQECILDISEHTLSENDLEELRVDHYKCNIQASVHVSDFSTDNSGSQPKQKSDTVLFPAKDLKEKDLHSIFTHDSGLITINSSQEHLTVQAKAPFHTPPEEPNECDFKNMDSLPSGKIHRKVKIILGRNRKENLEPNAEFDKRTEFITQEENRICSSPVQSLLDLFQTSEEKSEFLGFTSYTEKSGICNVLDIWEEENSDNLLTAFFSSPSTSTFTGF
Method Notes: CDC7 inhibition, biochemical chemiluminescence assay (Kinase Glo, IC50 determination)
Run Parameters: Table 1 activity class; symbol given only if active; read-out: CDC7 IC50 (Activity A)
Reported IC50 values for a set of compounds

Compound	Study System	IC50
COc1ccc(Br)c2oc3c(=O)[nH]c(CN4CC[C@H](O)C4)nc3c12	UniProtKB O00311	< 10 µM
CN1[C@@H]2CC[C@H]1CN(Cc1nc3c(oc4ccc(Br)cc43)c(=O)[nH]1)CC2	UniProtKB O00311	< 10 µM
O=c1c2oc3ccc(Br)cc3c2nc2n1CN1CCC[C@@H]21	UniProtKB O00311	< 10 µM
O=c1[nH]c(-c2ccccc2-n2ccnc2)nc2c1oc1ccc(Br)cc12	UniProtKB O00311	< 10 µM
CN1CCCC1c1nc2c(oc3ccc(Br)cc32)c(=O)[nH]1 (centres unmarked)	UniProtKB O00311	< 10 µM
CC(C)COc1cccc2oc3c(=O)[nH]c(CN4CC[C@H](O)C4)nc3c12	UniProtKB O00311	< 10 µM
O=c1[nH]c(-c2ccc(CNCCN3CCCCC3)cc2Cl)nc2c1oc1ccc(Br)cc12	UniProtKB O00311	< 10 µM
CN1CCN(c2ccc(CNCCc3nc4c(oc5ccc(Br)cc54)c(=O)[nH]3)cc2)CC1	UniProtKB O00311	< 10 µM
